- TESTED_SYSTEM: human MAO-B (Homo sapiens, UniProt P27338)
- Sequence (P27338 whole entry): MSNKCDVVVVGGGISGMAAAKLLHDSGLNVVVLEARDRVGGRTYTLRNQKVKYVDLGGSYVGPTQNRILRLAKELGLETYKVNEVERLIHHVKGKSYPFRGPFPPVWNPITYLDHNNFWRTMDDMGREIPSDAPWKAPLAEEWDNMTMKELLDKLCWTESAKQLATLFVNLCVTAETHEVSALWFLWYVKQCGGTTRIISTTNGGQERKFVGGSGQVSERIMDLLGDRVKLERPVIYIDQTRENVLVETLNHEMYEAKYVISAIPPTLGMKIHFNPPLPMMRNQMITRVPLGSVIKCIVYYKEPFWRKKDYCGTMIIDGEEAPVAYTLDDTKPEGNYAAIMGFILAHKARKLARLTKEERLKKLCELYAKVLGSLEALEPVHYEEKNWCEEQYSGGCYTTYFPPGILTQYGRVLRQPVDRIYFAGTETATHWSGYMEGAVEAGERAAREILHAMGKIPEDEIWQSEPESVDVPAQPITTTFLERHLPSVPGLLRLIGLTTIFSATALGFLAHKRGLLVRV
MEASUREMENT_KIND: Ki (µM)
The answer is to be given in µM; state only the numeric part.

// returns Ki for CCC(C)c1cc(=O)c2c(O)cc(O)cc2o1 (stereo not shown) [Compound 2] with human MAO-B (Homo sapiens, UniProt P27338); value = 1.89

* * *

- TESTED_SYSTEM: Recombinant human MAO-A (Homo sapiens, UniProt P21397)
- Construct: purchased Sigma-Aldrich (USA)
- Sequence (P21397 1-527): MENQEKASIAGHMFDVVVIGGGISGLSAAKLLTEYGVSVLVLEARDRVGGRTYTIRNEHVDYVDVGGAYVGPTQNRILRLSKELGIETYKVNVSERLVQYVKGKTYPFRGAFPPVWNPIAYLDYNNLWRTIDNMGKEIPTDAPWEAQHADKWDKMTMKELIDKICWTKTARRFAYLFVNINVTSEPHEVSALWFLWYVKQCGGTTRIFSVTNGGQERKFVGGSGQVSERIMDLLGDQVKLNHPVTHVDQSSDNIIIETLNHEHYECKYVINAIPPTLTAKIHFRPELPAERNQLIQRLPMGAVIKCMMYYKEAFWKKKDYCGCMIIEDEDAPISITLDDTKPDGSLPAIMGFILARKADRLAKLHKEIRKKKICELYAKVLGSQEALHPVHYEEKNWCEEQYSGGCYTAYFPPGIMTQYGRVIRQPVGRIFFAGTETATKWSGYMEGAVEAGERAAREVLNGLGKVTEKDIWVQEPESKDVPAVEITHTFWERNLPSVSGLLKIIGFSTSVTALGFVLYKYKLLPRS
- ASSAY: biochemical
- Format: biochemical
- CONDITION: means ± SD of duplicate experiments
Items are presented alongside their recorded IC50.
The answer is to be given in µM; state only the numeric part.

| MOLECULE | IC50 / µM |
| --- | --- |
| CCC(C)c1cc(=O)c2c(O)cc(O)cc2o1 (centres unmarked) [Compound 2] | 6.92 |

Let's switch to this molecule now.
Looking up CC(C)c1cc(=O)c2c(O)cc(O)cc2o1 [Compound 1] , I see its IC50 listed as 2.7

* * *

- TESTED_SYSTEM: AChE from Electrophorus electricus (Electrophorus electricus, UniProt O42275)
- Construct: AChE from Electrophorus electricus; purchased Sigma-Aldrich (USA)
- Sequence (O42275 24-633): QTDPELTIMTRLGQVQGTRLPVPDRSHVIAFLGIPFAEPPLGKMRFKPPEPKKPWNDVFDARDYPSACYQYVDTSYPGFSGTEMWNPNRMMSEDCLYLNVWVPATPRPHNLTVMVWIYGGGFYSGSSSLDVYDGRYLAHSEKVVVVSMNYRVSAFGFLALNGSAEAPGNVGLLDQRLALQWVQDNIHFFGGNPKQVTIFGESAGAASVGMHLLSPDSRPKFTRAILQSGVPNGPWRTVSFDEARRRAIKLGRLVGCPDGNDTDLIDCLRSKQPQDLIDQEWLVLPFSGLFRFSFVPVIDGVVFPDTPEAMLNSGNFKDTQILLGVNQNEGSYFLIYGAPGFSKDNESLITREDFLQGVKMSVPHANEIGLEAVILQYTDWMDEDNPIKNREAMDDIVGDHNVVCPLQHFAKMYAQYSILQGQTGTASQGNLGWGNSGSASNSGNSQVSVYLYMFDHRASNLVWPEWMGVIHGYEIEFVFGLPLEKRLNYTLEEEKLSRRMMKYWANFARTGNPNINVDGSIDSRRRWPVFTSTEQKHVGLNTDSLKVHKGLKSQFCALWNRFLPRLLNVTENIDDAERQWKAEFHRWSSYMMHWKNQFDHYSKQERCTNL
- ASSAY: biochemical
- CONDITION: means ± SD of duplicate experiments
MEASUREMENT_KIND: IC50

Looking up CC(C)c1cc(=O)c2c(O)cc(O)cc2o1 , I see its IC50 listed as 31.7 µM

* * *

Items are presented alongside their recorded IC50.
- TESTED_SYSTEM: human MAO-B (Homo sapiens, UniProt P27338)
- Construct: purchased Sigma-Aldrich (USA)
- ASSAY: biochemical
- Type: biochemical
- CONDITION: means ± SD of duplicate experiments
The answer is to be given in µM; state only the numeric part.

| MOLECULE | UNIT_TAG | IC50 |
| --- | --- | --- |
| CCC(C)c1cc(=O)c2c(O)cc(O)cc2o1 (centres unmarked) [Compound 2] | µM | 3.42 |

Let's switch to this molecule now.
Looking up CC(C)c1cc(=O)c2c(O)cc(O)cc2o1 [Compound 1] , I see its IC50 listed as 27

Ref: paper PMC9706024
